conditionSummary: Ebola virus entry assay, reporter ratio channel; Channel type: primary
Activity calls are given as the source filed them. The rule behind the calls is not given here.
Classes to choose from: label 1 for active, label 0 for inactive

Sample answers from the record:
compound	qualitativeLabel
COc1ccc2cc(C=O)ccc2c1	label 0
COc1cc(C[C@@H](C)N)c(OC)cc1C	label 1
CN1CCC(N(Cc2ccccc2)c2ccccc2)CC1	label 1

// query Recorded call for O=c1[nH]c2ccccc2n1CCCN1CCN(C(c2ccccc2)c2ccccc2)CC1 ?
// result label 1

// query Recorded call for COc1ccccc1N1CCN(CCCNc2cc(=O)n(C)c(=O)n2C)CC1 ?
// result label 1

// query Recorded call for Cc1ccc(C(=O)Nc2ccc(S(=O)(=O)O)c3cc(S(=O)(=O)O)cc(S(=O)(=O)O)c23)cc1NC(=O)c1cccc(NC(=O)Nc2cccc(C(=O)Nc3cc(C(=O)Nc4ccc(S(=O)(=O)O)c5cc(S(=O)(=O)O)cc(S(=O)(=O)O)c45)ccc3C)c2)c1 ?
// result label 1

// query Recorded call for NC(=O)C(=O)N/N=C/c1ccc([N+](=O)[O-])o1 ?
// result label 0

// query Recorded call for Cc1c(N)cccc1C(F)(F)F ?
// result label 0

// query Recorded call for CCCOc1ccc2nc(NC(=O)OC)[nH]c2c1 ?
// result label 1

FYI, the data here is from PubChem BioAssay (NCATS).
